Target: human TACE (Homo sapiens (Human), UniProt P78536)
Sequence (P78536 whole entry, looked up, change not shown): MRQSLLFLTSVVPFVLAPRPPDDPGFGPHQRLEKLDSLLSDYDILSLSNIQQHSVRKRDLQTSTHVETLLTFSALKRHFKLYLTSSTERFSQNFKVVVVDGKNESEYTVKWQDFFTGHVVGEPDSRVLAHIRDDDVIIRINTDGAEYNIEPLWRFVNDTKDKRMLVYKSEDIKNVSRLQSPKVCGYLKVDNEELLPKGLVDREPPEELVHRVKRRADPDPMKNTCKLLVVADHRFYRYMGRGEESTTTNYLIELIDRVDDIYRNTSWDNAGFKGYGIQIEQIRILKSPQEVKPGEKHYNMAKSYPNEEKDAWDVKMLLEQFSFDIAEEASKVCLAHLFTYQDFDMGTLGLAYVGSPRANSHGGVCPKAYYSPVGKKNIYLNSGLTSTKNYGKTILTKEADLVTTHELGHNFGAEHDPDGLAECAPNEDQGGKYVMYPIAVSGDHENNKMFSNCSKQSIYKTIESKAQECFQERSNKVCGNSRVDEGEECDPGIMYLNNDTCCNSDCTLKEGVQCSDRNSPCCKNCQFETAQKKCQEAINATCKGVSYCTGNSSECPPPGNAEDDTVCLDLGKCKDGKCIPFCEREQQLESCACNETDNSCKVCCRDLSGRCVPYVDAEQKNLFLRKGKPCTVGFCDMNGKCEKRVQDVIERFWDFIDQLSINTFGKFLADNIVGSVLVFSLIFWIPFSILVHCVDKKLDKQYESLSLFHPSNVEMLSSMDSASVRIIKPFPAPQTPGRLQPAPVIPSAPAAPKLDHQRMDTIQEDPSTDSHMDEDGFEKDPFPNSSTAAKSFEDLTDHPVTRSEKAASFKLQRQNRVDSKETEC
Conditions: read-out: TACE potency IC50

| MOLECULE | UNIT_LABEL | READOUT_RELATION | IC50 |
| --- | --- | --- | --- |
| CCC(CC1(C)NC(=O)NC1=O)C(=O)N1CCN(c2cc(Cl)cc(Cl)c2)CC1 (centres unmarked) [compound 435] | nM | = | 225 |
| CC1(CCC(=O)N2CCN(c3ccc(F)c(F)c3)CC2)NC(=O)NC1=O (centres unmarked) | nM | > | 20000 |
| CC(CC1(C2CC2)NC(=O)NC1=O)C(=O)N1CCN(c2cc(F)cc(Cl)c2)[C@@H](C)C1 (some centres unmarked) [compound 413] | nM | > | 4000 |
| COCCOCC1(CC(C)C(=O)N2CCN(c3cc(Cl)cc(Cl)c3)[C@@H](C)C2)NC(=O)NC1=O (some centres unmarked) | nM | = | 3200 |
| C[C@H]1CN(C(=O)CCC2(C3CC3)NC(=O)NC2=O)CCN1c1cccc(F)c1 (some centres unmarked) | nM | > | 20000 |
| CC(CC1(c2ccccn2)NC(=O)NC1=O)C(=O)N1CCN(c2cccc(F)c2)[C@@H](C)C1 (some centres unmarked) | nM | = | 2620 |
| Cc1ccc(Cl)cc1N1CCN(C(=O)CCC2(C3CC3)NC(=O)NC2=O)CC1 (centres unmarked) | nM | = | 670 |
| Cc1cncc(N2CCN(C(=O)C(C)CC3(C4CC4)NC(=O)NC3=O)C[C@@H]2C)c1 (some centres unmarked) | nM | > | 4000 |

====

Listed below: IC50 values for each entry.
Biological target: human ADAMTS-5 (Homo sapiens (Human), UniProt Q9UNA0)
Sequence (Q9UNA0 262-930): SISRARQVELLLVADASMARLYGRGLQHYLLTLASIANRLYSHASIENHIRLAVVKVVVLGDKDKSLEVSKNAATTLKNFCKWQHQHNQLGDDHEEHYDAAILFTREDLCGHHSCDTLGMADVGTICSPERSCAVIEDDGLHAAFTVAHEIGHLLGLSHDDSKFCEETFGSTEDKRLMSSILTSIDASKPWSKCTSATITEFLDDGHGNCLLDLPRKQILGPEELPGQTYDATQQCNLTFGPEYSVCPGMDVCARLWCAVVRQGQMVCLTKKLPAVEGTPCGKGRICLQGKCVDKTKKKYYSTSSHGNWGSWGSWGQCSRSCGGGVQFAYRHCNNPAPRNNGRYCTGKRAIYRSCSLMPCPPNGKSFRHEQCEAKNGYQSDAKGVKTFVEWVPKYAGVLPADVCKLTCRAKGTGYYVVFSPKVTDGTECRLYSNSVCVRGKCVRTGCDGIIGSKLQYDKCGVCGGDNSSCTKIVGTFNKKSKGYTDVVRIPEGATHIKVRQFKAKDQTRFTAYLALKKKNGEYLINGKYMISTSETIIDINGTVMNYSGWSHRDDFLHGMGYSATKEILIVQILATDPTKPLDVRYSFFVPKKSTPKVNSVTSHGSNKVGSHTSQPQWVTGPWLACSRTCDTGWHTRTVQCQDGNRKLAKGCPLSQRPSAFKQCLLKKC
Conditions: read-out: hADAMTS-5 potency IC50

| COMPOUND | UNIT_LABEL | READOUT_RELATION | IC50 |
| --- | --- | --- | --- |
| COCC1(CC(C)C(=O)N2CCN(c3cc(F)c(Cl)c(F)c3)CC2)NC(=O)NC1=O (stereo not shown) [compound 448] | µM | = | 0.019 |
| COCC1(CC(C)C(=O)N2CCN(c3cc(F)ccc3C)CC2)NC(=O)NC1=O (stereo not shown) | µM | = | 0.024 |
| COC(CC1(C2CC2)NC(=O)NC1=O)C(=O)N1CCN(c2cc(Cl)cc(Cl)c2)CC1 (stereo not shown) | µM | = | 0.06 |
| CCC(CC1(C)NC(=O)NC1=O)C(=O)N1CCN(c2cc(Cl)cc(Cl)c2)CC1 (stereo not shown) [compound 236] | µM | = | 0.015 |
| C[C@H]1CN(C(=O)CCC2(C3CC3)NC(=O)NC2=O)CCN1c1cccnn1 (stereo partly shown) | µM | = | 0.776 |
| CC(CC1(c2ccccn2)NC(=O)NC1=O)C(=O)N1CCN(c2ccc(F)c(Cl)c2)[C@@H](C)C1 (stereo partly shown) [compound 245] | µM | = | 0.017 |
| C[C@H]1CN(C(=O)CCC2(C3CC3)NC(=O)NC2=O)CCN1c1ccc(F)c(F)c1 (stereo partly shown) | µM | = | 0.054 |
| C[C@H]1CN(C(=O)CCC2(C3CC3)NC(=O)NC2=O)CCN1c1cccc(-c2cn[nH]c2)c1 (stereo partly shown) | µM | = | 0.11 |
| C[C@H]1CN(C(=O)CCC2(C3CC3)NC(=O)NC2=O)CCN1c1cnc2ccccc2c1 (stereo partly shown) | µM | = | 0.097 |
| C[C@H]1CN(C(=O)CCC2(C3CC3)NC(=O)NC2=O)CCN1c1cc(F)cc(C#N)c1 (stereo partly shown) | µM | = | 0.43 |
| C[C@H]1CN(C(=O)CCC2(C3CC3)NC(=O)NC2=O)CCN1c1cc(Cl)ncn1 (stereo partly shown) | µM | = | 1.41 |
| Cc1cc(N2CCN(C(=O)C(C)CC3(C4CC4)NC(=O)NC3=O)C[C@@H]2C)ccc1F (stereo partly shown) | µM | = | 0.027 |
| Cc1ccc(N2CCN(C(=O)CCC3(C4CC4)NC(=O)NC3=O)C[C@@H]2C)cc1F (stereo partly shown) | µM | = | 0.114 |
| CC(CC1(c2ccccn2)NC(=O)NC1=O)C(=O)N1CCN(c2cc(Cl)cc(Cl)c2)CC1 (stereo not shown) [compound 434] | µM | = | 0.02 |
| CC(CC1(COCc2ccccc2)NC(=O)NC1=O)C(=O)N1CCN(c2cc(Cl)cc(Cl)c2)CC1 (stereo not shown) | µM | = | 0.028 |
| C[C@H]1CN(C(=O)CCC2(C3CC3)NC(=O)NC2=O)CCN1c1ccc(F)c(-c2cn[nH]c2)c1 (stereo partly shown) | µM | = | 0.155 |
| C[C@H]1CN(C(=O)CCC2(c3ccccn3)NC(=O)NC2=O)CCN1c1cccc(F)c1 (stereo partly shown) | µM | = | 0.05 |
| COCC1(CC(C)C(=O)N2CCN(c3ccc(Cl)c(C(F)(F)F)c3)[C@@H](C)C2)NC(=O)NC1=O (stereo partly shown) | µM | = | 0.061 |
| COc1cccc(C2(CCC(=O)N3CCN(c4cc(F)cc(F)c4)[C@@H](C)C3)NC(=O)NC2=O)n1 (stereo partly shown) | µM | = | 0.074 |
| Cc1ccc(C2(CCC(=O)N3CCN(c4cccc(F)c4)[C@@H](C)C3)NC(=O)NC2=O)cn1 (stereo partly shown) | µM | = | 0.071 |
| C[C@H]1CN(C(=O)CCC2(c3cccnc3)NC(=O)NC2=O)CCN1c1ccc(F)c(Cl)c1 (stereo partly shown) | µM | = | 0.061 |
| Cc1cccc(C2(CCC(=O)N3CCN(c4ccc(Cl)cc4)[C@@H](C)C3)NC(=O)NC2=O)n1 (stereo partly shown) | µM | = | 0.04 |
| C[C@H]1CN(C(=O)CCC2(C3CC3)NC(=O)NC2=O)CCN1c1ccc(Cl)c(F)c1 (stereo partly shown) | µM | = | 0.039 |
| Cc1c(Cl)cc(Cl)cc1N1CCN(C(=O)CCC2(C)NC(=O)NC2=O)C[C@@H]1C (stereo partly shown) | µM | = | 0.577 |
| C[C@H]1CN(C(=O)CCC2(c3cnccn3)NC(=O)NC2=O)CCN1c1cccc(F)c1 (stereo partly shown) | µM | = | 0.062 |
| Cc1cccc(C2(CCC(=O)N3CCN(c4ccc(F)c(Cl)c4)[C@@H](C)C3)NC(=O)NC2=O)n1 (stereo partly shown) | µM | = | 0.056 |
| CC(CC1(C2CNC2)NC(=O)NC1=O)C(=O)N1CCN(c2ccc(F)c(F)c2)CC1 (stereo not shown) | µM | = | 0.194 |
| COCC1(CC(C)C(=O)N2CCN(c3cc(Cl)cc(Cl)c3)[C@@H](C)C2)NC(=O)NC1=O (stereo partly shown) | µM | = | 0.053 |
| CC(CC1(C2CC2)NC(=O)NC1=O)C(=O)N1CCN(c2cccnc2)[C@@H](C)C1 (stereo partly shown) | µM | = | 0.035 |
| C[C@H]1CN(C(=O)CCC2(C3CC3)NC(=O)NC2=O)CCN1c1ccc2cnn(C)c2c1 (stereo partly shown) | µM | = | 0.264 |
| Cc1nc(N2CCN(C(=O)CCC3(C4CC4)NC(=O)NC3=O)C[C@@H]2C)no1 (stereo partly shown) | µM | > | 20 |

====

Biological target: human ADAMTS-5 (Homo sapiens (Human), UniProt Q9UNA0)
Conditions: read-out: hADAMTS-5 potency IC50

| COMPOUND | TGT | IC50 (nM) |
| --- | --- | --- |
| C[C@H]1CN(C(=O)CCC2(c3ccncc3)NC(=O)NC2=O)CCN1c1ccc(F)c(Cl)c1 (stereo partly shown) [compound 288] | human ADAMTS-5 (Homo sapiens (Human), UniProt Q9UNA0) | 72 |
| O=C1NC(=O)C(CCC(=O)N2CCN(c3cccc(Cl)c3)CC2)(CNCc2ccccc2)N1 (stereo not shown) [compound 184] | human ADAMTS-5 (Homo sapiens (Human), UniProt Q9UNA0) | 272 |
| C[C@H]1CN(C(=O)CCC2(c3cnccn3)NC(=O)NC2=O)CCN1c1cc(F)cc(Cl)c1 (stereo partly shown) [compound 326] | human ADAMTS-5 (Homo sapiens (Human), UniProt Q9UNA0) | 52 |
| C[C@H]1CN(C(=O)CCC2(C3CC3)NC(=O)NC2=O)CCN1c1cc(Cl)ccn1 (stereo partly shown) [compound 325] | human ADAMTS-5 (Homo sapiens (Human), UniProt Q9UNA0) | 796 |

====

Target: human TACE (Homo sapiens (Human))
Settings: read-out: TACE potency IC50
pIC50: −log10 of the molar value.

| COMPOUND | READOUT_RELATION | pIC50 |
| --- | --- | --- |
| Cc1noc(N2CCN(C(=O)CCC3(C4CC4)NC(=O)NC3=O)C[C@@H]2C)n1 (some centres unmarked) [compound 352] | < | 4.70 |
| COc1cccc(C2(CCC(=O)N3CCN(c4cccc(Cl)c4)CC3)NC(=O)NC2=O)c1 (centres unmarked) [compound 123] | = | 5.79 |
| Cc1cc(-c2cccc(N3CCN(C(=O)CCC4(C5CC5)NC(=O)NC4=O)C[C@@H]3C)c2)ccn1 (some centres unmarked) [compound 329] | < | 4.70 |
| CC1CN(C(=O)CCC2(C)NC(=O)NC2=O)CCN1c1ccccc1 (centres unmarked) [compound 63] | < | 4.70 |
| Cc1c(F)cccc1N1CCN(C(=O)CCC2(c3ccccn3)NC(=O)NC2=O)CC1 (centres unmarked) [compound 100] | < | 5.40 |
| O=C1NC(=O)[C@](CCC(=O)N2CCN(c3cc(Cl)cc(Cl)c3)CC2)(C2CC2)N1 [compound 173] | = | 5.50 |
| Cc1cccc(C2(CCC(=O)N3CCN(c4ccc(F)c(Cl)c4)[C@@H](C)C3)NC(=O)NC2=O)n1 (some centres unmarked) [compound 447] | = | 5.44 |
| CC(CC1(CCS(C)(=O)=O)NC(=O)NC1=O)C(=O)N1CCN(c2cc(Cl)cc(Cl)c2)CC1 (centres unmarked) [Cpd 218] | = | 6.57 |
